System: adipose cells of rats
protocol: Evaluation of the sugar transportation activity (2-[14C(U)]-deoxy-D-glucose incorporation)
Format: cell-based, Wistar rats
applied_conditions: concentration with reinforcing effect of 50% of that of insulin (100 nM) = 100%; rat adipose cells, 30 min pre-culture at 37° C., 5 min uptake
Reported A: sugar transportation activity (EC50) values for the following molecules.
The reply should contain only the number, in µg/mL.

>  <entry_smiles>
CC(=O)OCC(=O)N1[C@@H]2CCCC[C@H]2NC2=C(C(=O)NC2)[C@H]1c1ccccc1C

>  <target_or_test_system>
adipose cells of rats

>  <endpoint_result>
8

$$$$

For reference, reported A: sugar transportation activity (EC50) for "CC(=O)N1[C@@H]2CCCC[C@H]2NC2=C(C(=O)NC2)[C@H]1c1ccccc1C1CC1" stands at 0.5

In plain terms, "CCOC(=O)N1[C@@H]2CCCC[C@H]2NC2=C(C(=O)NC2)[C@H]1c1ccccc1C" has a documented A: sugar transportation activity (EC50) of 7

Record summary for "CC(=O)N1[C@@H]2CCCC[C@H]2NC2=C(C(=O)NC2)[C@H]1c1ccccc1OCc1ccccc1" : reported A: sugar transportation activity (EC50) = 3.6

For record "CCC(=O)N1[C@@H]2CCCC[C@H]2NC2=C(C(=O)NC2)[C@H]1c1ccccc1CC" the listed A: sugar transportation activity (EC50) is 2.2

Measured A: sugar transportation activity (EC50) of "COc1ccccc1[C@@H]1C2=C(CNC2=O)N[C@@H]2CCCC[C@H]2N1C(=O)OCc1ccccc1" : 6

In plain terms, "COc1ccccc1[C@@H]1C2=C(CNC2=O)N[C@@H]2CCCC[C@H]2N1C(=O)Cc1ccccc1" has a documented A: sugar transportation activity (EC50) of 5

GET /value?item= "COc1ccc([C@@H]2C3=C(CNC3=O)N[C@@H]3CCCC[C@H]3N2C(C)=O)cc1" &field=A: sugar transportation activity (EC50) returns 4.4

Memo: "CC(=O)N1[C@@H]2CCCC[C@H]2NC2=C(C(=O)NC2)[C@H]1c1ccccc1C" , reported A: sugar transportation activity (EC50): 5

---

Tested on: adipose cells of rats
protocol: Evaluation of the sugar transportation activity (2-[14C(U)]-deoxy-D-glucose incorporation)
Format: cell-based, Wistar rats
applied_conditions: concentration with reinforcing effect of 50% of that of insulin (100 nM) = 100%; rat adipose cells, 30 min pre-culture at 37° C., 5 min uptake
Each item that follows carries a reported A: sugar transportation activity (EC50).
Record the value in µg/mL, omitting the unit from your answer.

>  <entry_smiles>
CCOc1ccccc1[C@@H]1C2=C(CNC2=O)N[C@@H]2CCCC[C@H]2N1C(C)=O

>  <endpoint_result>
15

$$$$
>  <entry_smiles>
CCOCC(=O)N1[C@@H]2CCCC[C@H]2NC2=C(C(=O)NC2)[C@H]1c1ccccc1OCC

>  <endpoint_result>
4

$$$$
>  <entry_smiles>
CCC(=O)N1[C@@H]2CCCC[C@H]2NC2=C(C(=O)NC2)[C@H]1c1ccccc1Cl

>  <endpoint_result>
3

$$$$
>  <entry_smiles>
COc1ccccc1[C@@H]1C2=C(CNC2=O)N[C@@H]2CCCC[C@H]2N1C(=O)COc1ccccc1

>  <endpoint_result>
4.6

$$$$
>  <entry_smiles>
O=C1NCC2=C1[C@@H](c1ccccc1F)N(C(=O)C1CC1)[C@@H]1CCCC[C@H]1N2

>  <endpoint_result>
2

$$$$
>  <entry_smiles>
CCC(=O)N1[C@@H]2CCCC[C@H]2NC2=C(C(=O)NC2)[C@H]1c1ccccc1C

>  <endpoint_result>
2

$$$$
>  <entry_smiles>
CCOCC(=O)N1[C@@H]2CCCC[C@H]2NC2=C(C(=O)NC2)[C@H]1c1ccccc1Br

>  <endpoint_result>
8.6

$$$$
>  <entry_smiles>
COc1ccccc1[C@@H]1C2=C(CNC2=O)N[C@@H]2CCCC[C@H]2N1C(=O)CCNC(=O)OCc1ccccc1

>  <endpoint_result>
8

$$$$
>  <entry_smiles>
O=C1NCC2=C1[C@@H](c1ccccc1Br)N(C(=O)CC(F)(F)F)[C@@H]1CCCC[C@H]1N2

>  <endpoint_result>
0.5

$$$$
>  <entry_smiles>
CCc1ccccc1[C@@H]1C2=C(CNC2=O)N[C@@H]2CCCC[C@H]2N1C(=O)CC(=O)OC

>  <endpoint_result>
2

$$$$

For "CCOc1ccccc1[C@@H]1C2=C(CNC2=O)N[C@@H]2CCCC[C@H]2N1C(=O)COC(C)=O" the molecule record lists A: sugar transportation activity (EC50) as 13

Lookup result for "CCCC(=O)N1[C@@H]2CCCC[C@H]2NC2=C(C(=O)NC2)[C@H]1c1ccccc1Cl" ; measured A: sugar transportation activity (EC50): 4

The molecule listed as "CCC(=O)N1[C@@H]2CCCC[C@H]2NC2=C(C(=O)NC2)[C@H]1c1ccccc1OC" shows A: sugar transportation activity (EC50) equal to 0.77

For this molecule ( "CSc1ccccc1[C@@H]1C2=C(CNC2=O)N[C@@H]2CCCC[C@H]2N1C(C)=O" ), measured A: sugar transportation activity (EC50) is 5

Documented A: sugar transportation activity (EC50) of "COc1ccccc1[C@@H]1C2=C(CNC2=O)N[C@@H]2CCCC[C@H]2N1C(=O)CCN" : 8

// A: sugar transportation activity (EC50) lookup, molecule = "O=C1NCC2=C1[C@@H](c1ccccc1Cl)N(C(=O)CC(F)(F)F)[C@@H]1CCCC[C@H]1N2" , result: 0.5

A: sugar transportation activity (EC50) for "COc1cc(Cl)ccc1[C@@H]1C2=C(CNC2=O)N[C@@H]2CCCC[C@H]2N1C(C)=O" is 6

The value of A: sugar transportation activity (EC50) measured for the molecule "COc1ccccc1[C@@H]1C2=C(CNC2=O)N[C@@H]2CCCC[C@H]2N1C(=O)CC(C)=O" turned out to be 5.5
